- method.summary: Lymphoma1-1331-IJ- JAl cell line MDS Pharma Services Proliferation Assay
- Assay type: functional, cell-based, Homo sapiens
- study.conditions: Homo sapiens, Lymphoma1-1331-IJ- JAl
test.readout: IC50

Query block: Please give the documented IC50 of Cc1c[nH]c2nccc(Oc3c(F)cc(Nc4cc(Cl)nc(N)n4)cc3F)c12
Result block: > 100 µM

* * *

- Tested on: A549
- method.summary: Lung A549 cell line MDS Pharma Services Proliferation Assay
- Format: functional, cell-based, Homo sapiens
- study.conditions: Homo sapiens, A549
test.readout: pIC50
Answers are plain numbers, as −log10 of the molar value.

Query block: Please give the documented pIC50 of Cc1c[nH]c2nccc(Oc3c(F)cc(Nc4cc(Cl)nc(N)n4)cc3F)c12
Result block: 5.82
